Reported inhibition values follow for various compounds
# Tested on: Receptor-type tyrosine-protein kinase FLT3 (Homo sapiens), P36888 [D835Y]
# run.conditions: at 0.1 µM
test.readout: inhibition (%)

INSERT INTO measurements (compound, test_readout, observed_measurement) VALUES
  ('Cc1ccc(NC(=O)CC2CC2)cc1-c1ccc(C(=O)NCC2CC2)cc1', 'inhibition', -2.84),
  ('COc1cc2ncnc(Nc3ccc(C)c(O)c3)c2cc1OC', 'inhibition', -2.6),
  ('c1ccc(Nc2ncc(-c3ccccc3)o2)cc1', 'inhibition', 5.03),
  ('NS(=O)(=O)c1ccc(-c2cc3ccncc3cc2OCc2ccccc2)cc1', 'inhibition', -4.03),
  ('CCS(=O)(=O)c1ccc(OC)c(Nc2ncc(-c3cccc(OC)c3)o2)c1', 'inhibition', 29.4),
  ('c1ccc(Cc2nc3ccc(Nc4ncnc5ccccc45)cc3[nH]2)cc1', 'inhibition', 4.82),
  ('CN(C)C(=O)O[C@H]1CN[C@H](C#Cc2cc3ncnc(Nc4ccc(OCc5cccc(F)c5)c(Cl)c4)c3s2)C1', 'inhibition', 3.22),
  ('CN(C)c1cc2c(Nc3ccc4c(cnn4Cc4ccccc4)c3)ncnc2cn1', 'inhibition', 0.4),
  ('CC(C)c1ccc2c(c1)NC(=O)/C2=N/Nc1ccc(S(N)(=O)=O)cc1', 'inhibition', -2.45),
  ('NS(=O)(=O)c1ccc(N/N=C2\C(=O)Nc3ccc(Cl)cc32)cc1', 'inhibition', -0.18),
  ('CCn1c(-c2nonc2N)nc2c(C#CC(C)(C)O)nc(OCCNC)cc21', 'inhibition', -1.99),
  ('COc1cc(/C=N/Nc2ncnc3c2cnn3C(C)C)ccc1O', 'inhibition', -2.61),
  ('COC(=O)c1cncc(/C=C/c2c(C)cc(O)cc2C)c1', 'inhibition', -1.65),
  ('O=C(Nc1ccc(Oc2ccc3[nH]c(NC(=O)c4ccco4)nc3c2)cc1)Nc1cc(C(F)(F)F)ccc1F', 'inhibition', 1.75),
  ('OCc1ccc(-c2nc(-c3ccccn3)c(-c3ccc4c(c3)OCO4)[nH]2)cc1', 'inhibition', 0.22),
  ('NS(=O)(=O)c1cccc(-c2cc3ccncc3cc2OCc2ccccc2)c1', 'inhibition', 1.09),
  ('CCn1c(-c2nonc2N)nc2ccc(F)cc21', 'inhibition', -1.29),
  ('[O-][S+]1CCN(Cc2ccc(-c3ccc4ncnc(Nc5ccc(OCc6ccccc6)c(Cl)c5)c4c3)o2)CC1', 'inhibition', 0.74),
  ('CS(=O)(=O)CCNCc1nc(-c2ccc3ncnc(Nc4ccc(OCc5cccc(C(F)(F)F)c5)cc4)c3c2)cs1', 'inhibition', 2.62),
  ('COc1cc2ncn(-c3cc(OCc4ccccc4S(C)(=O)=O)c(C#N)s3)c2cc1OC', 'inhibition', 5.25),
  ('Nc1ccc(C#Cc2cncnc2Nc2ccc(OCc3cccc(F)c3)c(Cl)c2)cc1', 'inhibition', 1.46),
  ('NC(=O)c1sc(-n2cnc3ccccc32)cc1OCc1ccccc1Br', 'inhibition', -6.76),
  ('N#Cc1cccc(Nc2nccc(-c3cnn4ncccc34)n2)c1', 'inhibition', 7.57),
  ('NS(=O)(=O)c1cccc(Nc2cc(-c3ccc(F)cc3)n[nH]2)c1', 'inhibition', -2.62),
  ('CCCN1CCCC(c2ccc(Nc3nc(Nc4cc(F)ccc4C(N)=O)c4cc[nH]c4n3)c(OC)c2)C1 (stereo not given)', 'inhibition', 5.98);
